Target: Helios (Homo sapiens, UniProt Q96SW2+Q9UKS7)
Sequence (Q9UKS7 whole entry): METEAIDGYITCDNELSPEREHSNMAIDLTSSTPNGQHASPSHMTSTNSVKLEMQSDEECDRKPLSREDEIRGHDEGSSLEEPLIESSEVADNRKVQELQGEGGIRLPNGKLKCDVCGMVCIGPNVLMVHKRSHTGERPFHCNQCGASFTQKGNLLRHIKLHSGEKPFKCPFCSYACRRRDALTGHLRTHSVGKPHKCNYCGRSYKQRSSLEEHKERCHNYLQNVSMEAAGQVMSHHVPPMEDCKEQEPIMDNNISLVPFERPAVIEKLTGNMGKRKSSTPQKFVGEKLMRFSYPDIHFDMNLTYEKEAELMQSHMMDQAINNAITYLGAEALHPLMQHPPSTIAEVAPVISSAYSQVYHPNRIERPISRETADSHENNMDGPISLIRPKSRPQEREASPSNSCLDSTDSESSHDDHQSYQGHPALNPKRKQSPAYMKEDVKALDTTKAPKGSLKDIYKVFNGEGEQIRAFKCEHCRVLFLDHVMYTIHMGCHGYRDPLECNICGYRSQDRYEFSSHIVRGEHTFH
Sequence (Q96SW2 whole entry): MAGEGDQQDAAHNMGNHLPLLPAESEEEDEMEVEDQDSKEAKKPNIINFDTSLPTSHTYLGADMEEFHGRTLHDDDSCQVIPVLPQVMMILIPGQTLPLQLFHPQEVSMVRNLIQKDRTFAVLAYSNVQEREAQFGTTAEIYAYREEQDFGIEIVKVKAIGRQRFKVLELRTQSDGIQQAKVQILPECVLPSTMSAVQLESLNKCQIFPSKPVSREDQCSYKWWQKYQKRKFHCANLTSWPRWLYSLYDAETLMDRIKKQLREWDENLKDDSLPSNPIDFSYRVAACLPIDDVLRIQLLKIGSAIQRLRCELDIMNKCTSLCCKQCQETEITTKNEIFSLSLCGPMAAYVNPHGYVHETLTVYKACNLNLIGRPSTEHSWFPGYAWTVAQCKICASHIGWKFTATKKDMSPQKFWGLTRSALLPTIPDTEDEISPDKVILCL
Sequence (Q16531 whole entry partner): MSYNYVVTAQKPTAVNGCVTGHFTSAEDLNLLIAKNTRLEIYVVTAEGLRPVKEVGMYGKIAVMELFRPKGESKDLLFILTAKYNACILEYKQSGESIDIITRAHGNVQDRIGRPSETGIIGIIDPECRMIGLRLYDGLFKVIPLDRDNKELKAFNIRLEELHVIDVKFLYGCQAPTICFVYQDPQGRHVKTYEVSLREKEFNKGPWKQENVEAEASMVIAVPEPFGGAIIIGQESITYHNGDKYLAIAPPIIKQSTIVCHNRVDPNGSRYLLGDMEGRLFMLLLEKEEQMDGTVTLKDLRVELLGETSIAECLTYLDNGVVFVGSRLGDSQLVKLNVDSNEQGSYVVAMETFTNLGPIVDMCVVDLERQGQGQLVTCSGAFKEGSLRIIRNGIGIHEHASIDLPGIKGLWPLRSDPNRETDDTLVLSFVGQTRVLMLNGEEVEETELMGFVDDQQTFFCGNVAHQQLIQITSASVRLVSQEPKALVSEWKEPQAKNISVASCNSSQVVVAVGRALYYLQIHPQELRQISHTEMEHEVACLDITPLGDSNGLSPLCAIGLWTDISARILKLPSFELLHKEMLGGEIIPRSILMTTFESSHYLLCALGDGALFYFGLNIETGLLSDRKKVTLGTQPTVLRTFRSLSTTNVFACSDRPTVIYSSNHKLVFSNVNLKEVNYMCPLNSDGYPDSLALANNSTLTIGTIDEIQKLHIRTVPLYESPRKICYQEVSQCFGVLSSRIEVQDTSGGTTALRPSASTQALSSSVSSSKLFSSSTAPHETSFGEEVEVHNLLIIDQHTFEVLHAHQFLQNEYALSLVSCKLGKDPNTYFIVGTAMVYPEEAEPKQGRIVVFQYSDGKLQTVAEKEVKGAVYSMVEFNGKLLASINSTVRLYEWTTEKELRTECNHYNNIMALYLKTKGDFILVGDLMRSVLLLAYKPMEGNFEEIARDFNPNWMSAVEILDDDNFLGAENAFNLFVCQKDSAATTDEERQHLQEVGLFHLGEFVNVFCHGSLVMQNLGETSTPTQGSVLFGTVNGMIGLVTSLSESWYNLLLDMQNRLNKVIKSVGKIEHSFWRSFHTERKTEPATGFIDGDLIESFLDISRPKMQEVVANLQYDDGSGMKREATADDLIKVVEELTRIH
Experiment: Helios Cellular Degradation Assay (Helios readout)
Type: cell-based
Set-up: endogenous in cells; host or cells: Jurkat
Conditions: Jurkat cells, 72 h incubation, Helios-PE antibody staining, flow cytometry; read-out: Helios Jurkat IC50
quantity: DC50 (nM)

Completed entries (count: 10):
molecule: Cc1nc(-c2ccc3c(c2)CN(C2CCC(=O)NC2=O)C3=O)cc2ccccc12 (stereo not shown) [Example 88]
testSystem: Helios (Homo sapiens, UniProt Q96SW2+Q9UKS7)
observedResult: 20

molecule: O=C1CCC(N2Cc3cc(-c4cc(O)c5ccccc5n4)ccc3C2=O)C(=O)N1 (stereo not shown) [Example 37]
testSystem: Helios (Homo sapiens, UniProt Q96SW2+Q9UKS7)
observedResult: 2400

molecule: Nc1nc(-c2ccc3c(c2)CN(C2CCC(=O)NC2=O)C3=O)cc2[nH]ccc(=O)c12 (stereo not shown) [Example 47]
testSystem: Helios (Homo sapiens, UniProt Q96SW2+Q9UKS7)
observedResult: 220

molecule: O=C1CCC(N2Cc3cc(-c4ccc5ncccc5n4)ccc3C2=O)C(=O)N1 (stereo not shown) [Example 21]
testSystem: Helios (Homo sapiens, UniProt Q96SW2+Q9UKS7)
observedResult: 37

molecule: CCCc1cc(N)nc(-c2ccc3c(c2)CN(C2CCC(=O)NC2=O)C3=O)c1C#N (stereo not shown) [Example 173]
testSystem: Helios (Homo sapiens, UniProt Q96SW2+Q9UKS7)
observedResult: 120

molecule: CCOc1c(-c2ccc3c(c2)CN(C2CCC(=O)NC2=O)C3=O)ncc2ccccc12 (stereo not shown) [Example 85]
testSystem: Helios (Homo sapiens, UniProt Q96SW2+Q9UKS7)
observedResult: 10

molecule: Cc1ccc2nc(-c3ccc4c(c3)CN(C3CCC(=O)NC3=O)C4=O)ccc2c1 (stereo not shown) [Example 39]
testSystem: Helios (Homo sapiens, UniProt Q96SW2+Q9UKS7)
observedResult: 25

molecule: O=C1CCC(N2Cc3cc(-c4ccc5c(n4)NCCCC5)ccc3C2=O)C(=O)N1 (stereo not shown) [Example 136]
testSystem: Helios (Homo sapiens, UniProt Q96SW2+Q9UKS7)
observedResult: 290

molecule: O=C1CCC(N2Cc3cc(-c4nccc(-c5ccccc5)n4)ccc3C2=O)C(=O)N1 (stereo not shown) [Example 71]
testSystem: Helios (Homo sapiens, UniProt Q96SW2+Q9UKS7)
observedResult: 75

molecule: O=C1CCC(N2Cc3cc(-c4nccc(-c5ccccn5)n4)ccc3C2=O)C(=O)N1 (stereo not shown) [Example 75]
testSystem: Helios (Homo sapiens, UniProt Q96SW2+Q9UKS7)
observedResult: 1200

[A] N#Cc1cccc(-c2ccc3c(c2)CN(C2CCC(=O)NC2=O)C3=O)n1 (stereo not shown) [Example 162]
[B] CS(=O)(=O)N1CCN(c2cc(N)nc(-c3ccc4c(c3)CN(C3CCC(=O)NC3=O)C4=O)c2)CC1 (stereo not shown) [Example 185]
Between the two listed entries A and B , which has its DC50 at the higher number? In your reply, give the label of the chosen option. B
(B: 6400 nM, A: 2460 nM)

[A] CNc1nc(-c2ccc3c(c2)CN(C2CCC(=O)NC2=O)C3=O)cc2ncccc12 (stereo not shown) [Example 51]
[B] Nc1cc2ccccc2c(-c2ccc3c(c2)CN(C2CCC(=O)NC2=O)C3=O)n1 (stereo not shown) [Example 25]
Between the two listed entries A and B , which has its DC50 at the higher number? In your reply, give the label of the chosen option. B
(B: 48 nM, A: 26 nM)

[P] Nc1ccc2c(-c3ccc4c(c3)CN(C3CCC(=O)NC3=O)C4=O)nccc2c1 (stereo not shown) [Example 133]
[Q] O=C1CCC(N2Cc3cc(-c4nccc5c(F)cccc45)ccc3C2=O)C(=O)N1 (stereo not shown) [Example 20]
Between the two listed entries P and Q , which has its DC50 at the higher number? In your reply, give the label of the chosen option. Q

[P] NC(=O)c1cnc(-c2ccc3c(c2)CN(C2CCC(=O)NC2=O)C3=O)nc1N (stereo not shown) [Example 81]
[Q] N#Cc1cc(C2CC2)c(N)nc1-c1ccc2c(c1)CN(C1CCC(=O)NC1=O)C2=O (stereo not shown) [Example 182]
Between the two listed entries P and Q , which has its DC50 at the higher number? In your reply, give the label of the chosen option. P

[P] COc1cc(N)nc(-c2ccc3c(c2)CN(C2CCC(=O)NC2=O)C3=O)c1 (stereo not shown) [Example 164]
[Q] O=C1CCC(N2Cc3cc(-c4ncccc4CO)ccc3C2=O)C(=O)N1 (stereo not shown) [Example 107]
[R] O=C1CCC(N2Cc3cc(-c4ncc(Br)c5cc[nH]c45)ccc3C2=O)C(=O)N1 (stereo not shown) [Example 56]
Task for the reader: rank each entry by its DC50, from the minimum upward. Rank them, then answer with their labels in that order. R, P, Q

Provenance of the data: patent US12570671B2
